So I've got a bunch of variants here, and I need their abundance fitness values.
B1: Zinc finger homeobox protein 3, residues 2643 to 2698; numbered along this chain, Q15911 (parent)
chain: RLRTTITPEQLEILYQKYLLDSNPTRKMLDHIAHEVGLKKRVVQVWFQNTRARERK

Variants of: B1
Assay: abundance fitness (aPCA) (normalised: wild type 0, dead -1); higher = more abundant; growth selection in yeast, the domain comes from the species named
Conditions: Homo sapiens
Numbers only.

[[record]]
sequence_data = "RLRTTITPEQLEILYQKYLLDSNTTRKMLDHIAHEVGLKKRVVQVWFQNTRARERK"
quantity_name = "abundance fitness"
observed_measurement = -0.957

[[record]]
sequence_data = "RLRTTITPEQLEILKQKYLLDSNPTRKMLDHIAHEVGLKKRVVQVWFQNTRARERK"
quantity_name = "abundance fitness"
observed_measurement = 0.051


Please go through the list and note abundance fitness for each variant.
1. RLRTTITPEQLEILYKKYLLDSNPTRKMLDHIAHEVGLKKRVVQVWFQNTRARERK
2. RLRTTITPEQLEILYQKYLLDSNPTRKMLDHIAHEVGLKKRVVQVWFQNTRVRERK
3. RLRTTITPEQLEILYQKYLLDSNPTRKMLDHIAHEVGLKKRVVQVWFQNTRNRERK
4. RLRTTITPEQLEILYQKYLLDSNFTRKMLDHIAHEVGLKKRVVQVWFQNTRARERK
5. RLRTTITPEQLEILYQDYLLDSNPTRKMLDHIAHEVGLKKRVVQVWFQNTRARERK
6. RLRTTITPEQLEILYQKYLLDSNPTRKMLDHIAHEVGLKKRVVQVWPQNTRARERK

1: -0.106; 2: -0.349; 3: 0.062; 4: -0.644; 5: -0.651; 6: -1.04
